Counter-ions that a name gives are not always drawn.
Reported melting point values follow for various molecules

- Nc1nc2ccccc2c2c1ncn2CCOCC#Cc1ccncc1 (as salt: trifluoroacetate) [Example 18, bis(trifluoroacetate)]: 135 °C (dec.)

Note: attention shifts to another entry.
Problem: Find the recorded melting point belonging to Nc1nc2ccccc2c2c1ncn2CCOCC#Cc1ncccn1 (as salt: trifluoroacetate) and report it.
Result: 214 to 215 °C

---

System: tumor necrosis factor (α)
Experiment: Cytokine Induction in Human Cells: tumor necrosis factor (α) secreted by PBMCs, ELISA
Format: cell-based
Details: PBMC, incubated 18 to 24 hours, lowest concentration found to induce tumor necrosis factor
Where a name gives a salt, the structure may show the parent alone.
Measurement name: minimal effective concentration (µM)
Number in µM, nothing else.

* Nc1nc2ccccc2c2c1ncn2CCOCC#Cc1csc(C=O)c1 | 3.33

Problem: Find the recorded minimal effective concentration belonging to Cc1nc2c(N)nc3ccccc3c2n1CCOCCCc1cccnc1 and report it.
Result: 0.04

Problem: Find the recorded minimal effective concentration belonging to Cn1c(COCCn2cnc3c(N)nc4ccccc4c32)cc2ccccc21 and report it.
Result: 3.33

Problem: Find the recorded minimal effective concentration belonging to Nc1nc2ccccc2c2c1ncn2CCOCC#Cc1ccoc1 [Example 19, trifluoroacetate] and report it.
Result: 3.33

Problem: Find the recorded minimal effective concentration belonging to CC(Cn1cnc2c(N)nc3ccccc3c21)OCC1CCCO1 (centres unmarked) and report it.
Result: 10

---

Reported minimal effective concentration values follow for various compounds
Test system: tumor necrosis factor (α)
Assay: Cytokine Induction in Human Cells: tumor necrosis factor (α) secreted by PBMCs, ELISA
Assay type: cell-based
Conditions: PBMC, incubated 18 to 24 hours, lowest concentration found to induce tumor necrosis factor
Counter-ions that a name gives are not always drawn.
Number in µM, nothing else.

• Nc1nc2ccccc2c2c1ncn2CCOCC#Cc1cccs1 [Example 30] = 3.33

Problem: Find the recorded minimal effective concentration belonging to CCCCc1nc2c(N)nc3ccccc3c2n1CCOCCCc1cccnc1 [Example 35] and report it.
Result: 0.12

Problem: Find the recorded minimal effective concentration belonging to Nc1nc2ccccc2c2c1ncn2CCOCc1cn(CSc2ccccc2)nn1 [Example 11] and report it.
Result: 0.04

Problem: Find the recorded minimal effective concentration belonging to Nc1nc2ccccc2c2c1ncn2CCOCC#Cc1ncccn1 [Example 17, trifluoroacetate] and report it.
Result: 0.37

Problem: Find the recorded minimal effective concentration belonging to Nc1nc2ccccc2c2c1ncn2CCOCc1cccnc1 [Example 13, Hydrochloride] and report it.
Result: 1.11

Problem: Find the recorded minimal effective concentration belonging to Nc1nc2ccccc2c2c1ncn2CCOCCCc1cccs1 [Example 32] and report it.
Result: 1.11

Problem: Find the recorded minimal effective concentration belonging to Nc1nc2ccccc2c2c1ncn2CCOCc1cn(Cc2ccccc2)nn1 [Example 10, hydrochloride] and report it.
Result: 1.11

Problem: Find the recorded minimal effective concentration belonging to Nc1nc2ccccc2c2c1ncn2CCOCCCc1ccncc1 [Example 5] and report it.
Result: 0.37

Problem: Find the recorded minimal effective concentration belonging to Cc1noc(C)c1COCCn1cnc2c(N)nc3ccccc3c21 [Example 16] and report it.
Result: 10

---

Reported minimal effective concentration values follow for various molecules
Test system: tumor necrosis factor (α)
Test: Cytokine Induction in Human Cells: tumor necrosis factor (α) secreted by PBMCs, ELISA
Assay type: cell-based
Details: PBMC, incubated 18 to 24 hours, lowest concentration found to induce tumor necrosis factor
Number in µM, nothing else.

The examples below pair each entry with its known result.
* Nc1nc2ccccc2c2c1ncn2CCOCCCc1cncnc1 | 3.33
* Nc1nc2ccccc2c2c1ncn2CCOCCCc1ccccn1 | 1.11
* Nc1nc2ccccc2c2c1ncn2CCOCc1ccncc1 | 3.33
* Nc1nc2ccccc2c2c1ncn2CCOCc1ccccn1 | 0.37

Problem: Find the recorded minimal effective concentration belonging to Nc1nc2ccccc2c2c1ncn2CCOCC#Cc1cncc2ccccc12 and report it.
Result: 3.33

---

Reported melting point values follow for various molecules
Counter-ions that a name gives are not always drawn.

• Nc1nc2ccccc2c2c1ncn2CCOCC#Cc1cccs1 = 148 to 150 °C
• Nc1nc2ccccc2c2c1ncn2CCOCC#Cc1ccccn1 (as salt: trifluoroacetate) = 129 to 131 °C
• Nc1nc2ccccc2c2c1ncn2CCOCc1cn(Cc2ccccc2)nn1 (as salt: hydrochloride) = 209 to 211 °C

Problem: Find the recorded melting point belonging to Nc1nc2ccccc2c2c1ncn2CCOCC#Cc1ccoc1 (as salt: trifluoroacetate) and report it.
Result: 160 to 162 °C

Problem: Find the recorded melting point belonging to Nc1nc2ccccc2c2c1ncn2CCOCc1ccccn1 and report it.
Result: 196 to 198 °C

Problem: Find the recorded melting point belonging to Nc1nc2ccccc2c2c1ncn2CCOCCCc1cccs1 and report it.
Result: 130.1 to 131.6 °C

Problem: Find the recorded melting point belonging to Cn1c(COCCn2cnc3c(N)nc4ccccc4c32)cc2ccccc21 and report it.
Result: 243 to 245 °C

Problem: Find the recorded melting point belonging to Nc1nc2ccccc2c2c1ncn2CCOCCCc1ccccn1 and report it.
Result: 138 to 140 °C

Problem: Find the recorded melting point belonging to Nc1nc2ccccc2c2c1ncn2CCOCc1cn(CSc2ccccc2)nn1 and report it.
Result: 182 to 184 °C

---

Test system: tumor necrosis factor (α)
Assay: Cytokine Induction in Human Cells: tumor necrosis factor (α) secreted by PBMCs, ELISA
Type: cell-based
Details: PBMC, incubated 18 to 24 hours, lowest concentration found to induce tumor necrosis factor
Counter-ions that a name gives are not always drawn.
Measurement name: minimal effective concentration (µM)
Number in µM, nothing else.

The examples below pair each entry with its known result.
- Nc1nc2ccccc2c2c1ncn2CCOCC#Cc1nccs1 [Example 2]: 10
- Nc1nc2ccccc2c2c1ncn2CCOCCCc1cccnc1 [Example 8, Bis(trifluoroacetate)]: 0.12
- Nc1nc2ccccc2c2c1ncn2CCOCC#Cc1ccccn1 [Example 21, trifluoroacetate]: 10

Note: attention shifts to another entry.
Problem: Find the recorded minimal effective concentration belonging to Nc1nc2ccccc2c2c1ncn2CCOCC#Cc1ccncc1 [Example 18, bis(trifluoroacetate)] and report it.
Result: 10

---

Where a name gives a salt, the structure may show the parent alone.
Measurement name: melting point

The examples below pair each entry with its known result.
* Nc1nc2ccccc2c2c1ncn2CCOCc1cccnc1 (as salt: hydrochloride) | 229 to 231 °C
* Nc1nc2ccccc2c2c1ncn2CCOCCCc1nccs1 | 134 to 135 °C
* Cc1nc2c(N)nc3ccccc3c2n1CCOCCCc1cccnc1 | 145 to 146 °C

Problem: Find the recorded melting point belonging to Cc1nc2c(N)nc3c(c2n1CCOCCCc1cccnc1)CCCC3 and report it.
Result: 140 to 141 °C

Problem: Find the recorded melting point belonging to Cc1noc(C)c1COCCn1cnc2c(N)nc3ccccc3c21 and report it.
Result: 213 to 215 °C

Problem: Find the recorded melting point belonging to Nc1nc2ccccc2c2c1ncn2CCOCc1ccncc1 and report it.
Result: 159 to 161 °C

Problem: Find the recorded melting point belonging to Nc1nc2ccccc2c2c1ncn2CCOCCCc1ccncc1 and report it.
Result: 160 to 162 °C

Problem: Find the recorded melting point belonging to Nc1nc2ccccc2c2c1ncn2CCOCCCc1ncccn1 and report it.
Result: 126 to 127 °C

Problem: Find the recorded melting point belonging to Nc1nc2ccccc2c2c1ncn2CCOCC#Cc1nccs1 and report it.
Result: 157 to 159 °C

meta.source: patent US6664260B2
